Experiment: decreased DLD-1 cellular survival, CellTiter-Glo luminescent readout, NPC compound collection, primary HTS (AID 1117346)
Conditions: DLD-1 viability, CellTiter-Glo luminescence; at 20 µM (top of the series)
Calls of active or inactive are those of the source.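 The calls were made as follows: active = compounds that lower survival of DLD-1 colon cancer cells in the luminescence readout, no cutoff given; inactive = the rest.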
Log the outcome using a class from 1 (yes) (active), 0 (no) (inactive)

Reference set, count: 8
{"COMPOUND": "CCc1ccc(C2CCNCC2)cc1", "CATEGORY_LABEL": "0 (no)"}
{"COMPOUND": "Oc1ccc([C@H]2CNCc3c2ccc(O)c3O)cc1O", "CATEGORY_LABEL": "0 (no)"}
{"COMPOUND": "O=C(CBr)Nc1ccc(Cl)cc1C(=O)c1ccccc1F", "CATEGORY_LABEL": "1 (yes)"}
{"COMPOUND": "CC(C)(C)NCC(O)c1cc(Cl)c(N)c(C(F)(F)F)c1 (stereo not drawn)", "CATEGORY_LABEL": "0 (no)"}
{"COMPOUND": "Cc1ccc2c(c1)C1CN(C)CCC1N2 (stereo not drawn)", "CATEGORY_LABEL": "0 (no)"}
{"COMPOUND": "CCOP(=S)(OCC)O/N=C(\\C#N)c1ccccc1", "CATEGORY_LABEL": "0 (no)"}
{"COMPOUND": "Fc1cc(Br)ccc1CBr", "CATEGORY_LABEL": "0 (no)"}
{"COMPOUND": "O=C(N/N=C/c1ccc([N+](=O)[O-])o1)c1cc([N+](=O)[O-])cc([N+](=O)[O-])c1O", "CATEGORY_LABEL": "0 (no)"}

Any idea what this test logged for "CCCCCCCCC(=O)NCc1ccc(O)c(OC)c1" ?
0 (no)

Any idea what this test logged for C=CCOC(Cn1ccnc1)c1ccc(Cl)cc1Cl (stereo not drawn) ?
0 (no)
